The measurements presented in this section are drawn from patent US11566007B2.

Listed below: pIC50 values for each entry.
studyTarget: NRAS Q61K (Homo sapiens (Human), UniProt P01111+P62937, Q61K)
Sequence (P01111 whole entry Q61K): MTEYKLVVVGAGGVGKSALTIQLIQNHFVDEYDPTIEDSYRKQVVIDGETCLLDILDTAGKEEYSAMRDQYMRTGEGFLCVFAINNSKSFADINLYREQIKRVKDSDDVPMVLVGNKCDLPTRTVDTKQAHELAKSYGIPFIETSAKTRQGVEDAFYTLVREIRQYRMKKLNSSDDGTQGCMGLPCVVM
Sequence (P62937 whole entry): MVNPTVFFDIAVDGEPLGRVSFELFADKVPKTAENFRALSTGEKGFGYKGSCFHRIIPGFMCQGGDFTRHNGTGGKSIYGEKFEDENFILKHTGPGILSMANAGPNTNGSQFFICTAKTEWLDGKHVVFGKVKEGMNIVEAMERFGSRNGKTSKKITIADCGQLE
assay: Ras-Raf (BRAF RBD) disruption / FRET / MOA assay, NRAS Q61K
Type: biochemical
setupConditions: NRAS Q61K; Ras-Raf disruption/FRET/MOA assay; read-out: IC50* NRAS Q61K FRET data
pIC50: −log10 of the molar value.

| compound | studyTarget | pIC50 |
| --- | --- | --- |
| CCn1c(-c2cccnc2[C@H](C)OC)c2c3cc(ccc31)-c1cccc(c1)C[C@H](NC(=O)[C@@H](COC1CN(C(=O)C#CC(C)(C)N3CCC3)C1)C(C)C)C(=O)N1CCC[C@H](N1)C(=O)OCC(C)(C)C2 (atropisomer, axis not shown) | NRAS Q61K (Homo sapiens (Human), UniProt P01111+P62937, Q61K) | < 5.00 |
| C=CC(=O)N(C)[C@H]1CCN(C(=O)N(C)[C@H](C(=O)N[C@H]2Cc3nc(cs3)-c3ccc4c(c3)c(c(-c3cccnc3[C@H](C)OC)n4CC)CC(C)(C)COC(=O)[C@@H]3CCCN(N3)C2=O)C(C)C)C1 (atropisomer, axis not shown) | NRAS Q61K (Homo sapiens (Human), UniProt P01111+P62937, Q61K) | 7.00 to 8.00 |

====

studyTarget: NRAS G12C (Homo sapiens (Human), UniProt P01111+P62937, G12C)
Sequence (P01111 whole entry G12C): as the sequence (P01111 whole entry Q61K) above, with G12C, K61Q counted along it
Sequence (P62937 whole entry): as the sequence (P62937 whole entry) above
assay: Ras-Raf (BRAF RBD) disruption / FRET / MOA assay, NRAS G12C
Assay type: biochemical
setupConditions: read-out: IC50* NRAS G12C FRET data
observedProperty: IC50

| compound | observed |
| --- | --- |
| C=CC(=O)N1C[C@@H](C)[C@H](C(=O)N(C)[C@H](C(=O)N[C@H]2Cc3cccc(c3)-c3ccc4c(c3)c(c(-c3cccnc3[C@H](C)OC)n4CC)CC(C)(C)COC(=O)[C@@H]3CCCN(N3)C2=O)C(C)C)C1 (atropisomer, axis not shown) | 100 to 1000 nM |
| C=CC(=O)N(C)CCC1CCN(C(=O)N(C)[C@H](C(=O)N[C@H]2Cc3nc(cs3)-c3ccc4c(c3)c(c(-c3cccnc3[C@H](C)OC)n4CC)CC(C)(C)COC(=O)[C@@H]3CCCN(N3)C2=O)C(C)C)CC1 (atropisomer, axis not shown) | 10 to 100 nM |
| CO[C@@H](C)c1ncccc1-c1c2c3cc(ccc3n1CC(F)(F)F)-c1cnc(o1)C[C@H](NC(=O)[C@H](C(C)C)N(C)C(=O)[C@H]1CCN(C(=O)C#CC(C)(C)N(C)C)C1)C(=O)N1CCC[C@H](N1)C(=O)OCC(C)(C)C2 (atropisomer, axis not shown) | < 10 nM |
| C=CC(=O)N1CC[C@H](C(=O)N(C)[C@H](C(=O)N[C@H]2Cc3cc(O)cc(c3)-c3ccc4c(c3)c(c(-c3cnc(N(C)C)s3)n4CC)CC(C)(C)COC(=O)[C@@H]3CCCN(N3)C2=O)C(C)C)C1 | 100 to 1000 nM |
| C=CC(=O)N1CC[C@@]2(C1)CN(C(=O)N(C)[C@H](C(=O)N[C@H]1Cc3nc(cs3)-c3ccc4c(c3)c(c(-c3cccnc3[C@H](C)OC)n4CC)CC(C)(C)COC(=O)[C@@H]3CCCN(N3)C1=O)C(C)C)CCO2 (atropisomer, axis not shown) | 10 to 100 nM |
| C=CC(=O)N1CC[C@H](C(=O)N(C)[C@@H](C(=O)N[C@H]2Cc3cc(O)cc(c3)-c3ccc4c(c3)c(c(-c3cccc(CN(C)C)c3)n4CC)CC(C)(C)COC(=O)[C@@H]3CCCN(N3)C2=O)C(C)C)C1 | 1000 to 10000 nM |
| CCn1c(-c2cccnc2[C@H](C)OC)c2c3cc(ccc31)-c1cc(O)cc(c1)C[C@H](NC(=O)[C@H](C(C)C)N1CC[C@@]3(CCN(C(=O)/C=C/CN(C)C)C3)C1=O)C(=O)N1CCC[C@H](N1)C(=O)OCC(C)(C)C2 (atropisomer, axis not shown) | 10 to 100 nM |
| C=CC(=O)N1CC[C@H](C(=O)N(C)[C@H](C(=O)N[C@H]2Cc3cc(O)cc(c3)-c3ccc4c(c3)c(c(-c3cncs3)n4CC)CC(C)(C)COC(=O)[C@@H]3CCCN(N3)C2=O)C(C)C)C1 | 100 to 1000 nM |
| C=CC(=O)N1CCOC2(CCN(C(=O)N(C)[C@H](C(=O)N[C@H]3Cc4nc(n(C)n4)-c4ccc5c(c4)c(c(-c4cccnc4[C@H](C)OC)n5CC(F)(F)F)CC(C)(C)COC(=O)[C@@H]4CCCN(N4)C3=O)C(C)C)CC2)C1 (atropisomer, axis not shown) | 100 to 1000 nM |
| C=CC(=O)N1CC(C(=O)N(C)[C@H](C(=O)N[C@H]2Cc3cccc(c3)-c3ccc4c(c3)c(c(-c3cccnc3[C@H](C)OC)n4CC)CC(C)(C)COC(=O)[C@@H]3CCCN(N3)C2=O)C(C)C)C1 (atropisomer, axis not shown) | 100 to 1000 nM |
| C=CC(=O)N1CC[C@H](C(=O)N(C)[C@H](C(=O)N[C@H]2Cc3cc(O)cc(c3)-c3ccc4c(c3)c(c(-c3cc(CN(C)C)cnc3[C@H](C)OC)n4CC)CC(C)(C)COC(=O)[C@@H]3CCCN(N3)C2=O)C(C)C)C1 (atropisomer, axis not shown) [Example A536] | 10 to 100 nM |
| CCn1c(-c2cccnc2[C@H](C)OC)c2c3cc(ccc31)-c1cccc(c1)C[C@H](NC(=O)[C@@H](COC1CN(C(=O)C#CC(C)(C)O)C1)C(C)C)C(=O)N1CCC[C@H](N1)C(=O)OCC(C)(C)C2 (atropisomer, axis not shown) | 100 to 1000 nM |
| CCn1c(-c2cccnc2[C@H](C)OC)c2c3cc(ccc31)-c1cc(O)cc(c1)C[C@H](NC(=O)[C@H](C(C)C)N(C)C(=O)[C@H]1CCN(C(=O)C#CC3(N(C)C)COC3)C1)C(=O)N1CCC[C@H](N1)C(=O)OCC(C)(C)C2 | < 10 nM |
| CCn1c(-c2cccnc2[C@H](C)OC)c2c3cc(ccc31)-c1cc(O)cc(c1)C[C@H](NC(=O)[C@H](C(C)C)N(C)C(=O)[C@H]1CCN(C(=O)C#CCN(C)C)C1)C(=O)N1CCC[C@H](N1)C(=O)OCC(C)(C)C2 (atropisomer, axis not shown) | < 10 nM |
| C=CC(=O)N1CC2(CCN(C(=O)N(C)[C@H](C(=O)N[C@H]3Cc4cccc(c4)-c4ccc5c(c4)c(c(-c4cccnc4[C@H](C)OC)n5CC)CC(C)(C)COC(=O)[C@@H]4CCCN(N4)C3=O)C(C)C)CC2)C1 (atropisomer, axis not shown) | 100 to 1000 nM |
